Test system: FMC63
Sequence (as listed by the source): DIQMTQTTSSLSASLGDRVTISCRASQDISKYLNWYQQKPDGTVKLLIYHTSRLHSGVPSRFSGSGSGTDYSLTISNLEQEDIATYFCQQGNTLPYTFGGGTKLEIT
Sequence (as listed by the source): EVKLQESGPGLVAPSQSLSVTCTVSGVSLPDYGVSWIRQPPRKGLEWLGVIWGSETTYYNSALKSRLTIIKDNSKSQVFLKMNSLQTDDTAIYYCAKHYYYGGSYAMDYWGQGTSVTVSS
Assay: CD19 variant binding to anti-CD19 antibody FMC63 (score)
Details: Table 1B, CD19 triple mutants
property: FMC63 Binding Score

molecule	val
W62T/F64A/F66S: CD19 variant (protein) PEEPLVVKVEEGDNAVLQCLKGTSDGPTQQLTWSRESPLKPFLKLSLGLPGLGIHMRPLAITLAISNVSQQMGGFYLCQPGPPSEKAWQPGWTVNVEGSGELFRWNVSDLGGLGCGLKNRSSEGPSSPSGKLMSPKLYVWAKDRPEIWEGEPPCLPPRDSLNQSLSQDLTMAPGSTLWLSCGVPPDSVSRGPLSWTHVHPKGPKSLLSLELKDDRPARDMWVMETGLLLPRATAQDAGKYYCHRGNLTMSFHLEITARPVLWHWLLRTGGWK	15.7
W62D/F64V/F66S: CD19 variant (protein) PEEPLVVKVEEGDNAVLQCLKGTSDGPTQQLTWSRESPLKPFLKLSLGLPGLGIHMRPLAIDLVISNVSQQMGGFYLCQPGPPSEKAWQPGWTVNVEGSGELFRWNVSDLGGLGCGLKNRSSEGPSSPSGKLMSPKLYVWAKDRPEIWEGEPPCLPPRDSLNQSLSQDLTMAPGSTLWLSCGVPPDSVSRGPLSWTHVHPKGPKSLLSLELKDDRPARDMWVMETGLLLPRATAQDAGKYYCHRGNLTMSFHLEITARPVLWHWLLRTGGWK	13.3
W62E/F64E/F66V: CD19 variant (protein) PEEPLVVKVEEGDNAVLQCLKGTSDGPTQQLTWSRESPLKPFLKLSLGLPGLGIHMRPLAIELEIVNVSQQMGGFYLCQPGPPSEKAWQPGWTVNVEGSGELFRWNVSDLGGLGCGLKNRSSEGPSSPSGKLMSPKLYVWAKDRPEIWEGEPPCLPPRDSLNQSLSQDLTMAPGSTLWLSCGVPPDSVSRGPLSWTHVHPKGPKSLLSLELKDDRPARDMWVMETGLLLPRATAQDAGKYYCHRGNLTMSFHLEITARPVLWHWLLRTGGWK	16.2
L59N/I61I/L63I: CD19 variant (protein) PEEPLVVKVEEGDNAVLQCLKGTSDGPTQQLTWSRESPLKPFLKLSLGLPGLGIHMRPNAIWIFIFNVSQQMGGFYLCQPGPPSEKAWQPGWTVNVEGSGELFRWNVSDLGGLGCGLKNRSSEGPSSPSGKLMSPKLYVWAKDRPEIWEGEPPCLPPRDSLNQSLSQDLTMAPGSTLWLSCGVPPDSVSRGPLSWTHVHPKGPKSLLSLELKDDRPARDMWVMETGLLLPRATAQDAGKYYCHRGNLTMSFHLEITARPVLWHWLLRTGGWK	15.6

Hey, just so you know, these numbers are from patent US20220387487A1.
